tested on: Botulinum neurotoxin type F light chain protease (Clostridium botulinum); test: Botulinum neurotoxin type F light chain protease inhibition, multiplex microsphere flow cytometry, validation set (AID 588459); conditions: multiplex microsphere protease substrate cleavage assay, at 10 µM, active compounds read high
Catalogue of compounds with associated inhibition
I only need the number, in %, no unit after it.

Known results for compounds:
CC(C)(C)C(=O)NC(=S)Nc1sc2c(c1C(N)=O)CCC2	0.8
COC(=O)c1cc(OC)c(OC)cc1NC(=O)CN1C(=O)c2ccccc2C1=O	-3.5
O=C(Cc1cccc2ccccc12)N1CC[C@@]2(O)CCCC[C@H]2C1	2.2

# input What reported inhibition corresponds to O=C(CS(=O)(=O)c1ccccc1)c1ccc2c(c1)OCCO2 on Botulinum neurotoxin type F light chain protease (Clostridium botulinum)?
# output 3.2

# input Queued: CC(=O)C1=C(NC(=O)c2ccc(C(F)(F)F)cc2)C[C@@H]2[C@H]1C2(C)C
# output 2

# input Queued: CN1CCN2c3ccccc3Cc3ccccc3C2C1 (stereo not given)
# output 0.3
